system: PC-14; test: relative viability (nuclei count vs DMSO), 5 days (fraction); higher = more cells survive; details: first compound 0.3162 µM
// reported relative viability for each item listed

- compound: "CCN(CC)CCCCNc1ncc2cc(-c3cc(OC)cc(OC)c3)c(NC(=O)NC(C)(C)C)nc2n1 + CC1(C)CCC(c2ccc(Cl)cc2)=C(CN2CCN(c3ccc(C(=O)NS(=O)(=O)c4ccc(N[C@H](CCN5CCOCC5)CSc5ccccc5)c(S(=O)(=O)C(F)(F)F)c4)cc3)CC2)C1 [Navitoclax] (partner 0.5 µM)"
  relative viability: 1.01
- compound: "O=c1cc(N2CCOCC2)oc2c(-c3cccc4c3sc3ccccc34)cccc12 + CS(=O)(=O)CCNCc1ccc(-c2ccc3ncnc(Nc4ccc(OCc5cccc(F)c5)c(Cl)c4)c3c2)o1 [Lapatinib] (partner 2 µM)"
  relative viability: 0.308
- compound: "O=c1cc(N2CCOCC2)oc2c(-c3cccc4c3sc3ccccc34)cccc12 + CC(=O)Nc1cccc(-n2c(=O)n(C3CC3)c(=O)c3c(Nc4ccc(I)cc4F)n(C)c(=O)c(C)c32)c1 [Trametinib] (partner 0.02 µM)"
  relative viability: 0.775
- compound: "CCN(CC)CCCCNc1ncc2cc(-c3cc(OC)cc(OC)c3)c(NC(=O)NC(C)(C)C)nc2n1 + CC(C)C[C@H](NC(=O)[C@H](Cc1ccccc1)NC(=O)c1cnccn1)B(O)O [Bortezomib] (partner 0.002 µM)"
  relative viability: 0.962
- compound: "O=c1cc(N2CCOCC2)oc2c(-c3cccc4c3sc3ccccc34)cccc12 + C[C@@H](Oc1cc(-c2cnn(C3CCNCC3)c2)cnc1N)c1c(Cl)ccc(F)c1Cl [Crizotinib] (partner 1 µM)"
  relative viability: 0.843
- compound: "O=c1cc(N2CCOCC2)oc2c(-c3cccc4c3sc3ccccc34)cccc12 + O=C(c1cc(Cc2n[nH]c(=O)c3ccccc23)ccc1F)N1CCN(C(=O)C2CC2)CC1 [Olaparib] (partner 8 µM)"
  relative viability: 0.282
- compound: "CCN(CC)CCCCNc1ncc2cc(-c3cc(OC)cc(OC)c3)c(NC(=O)NC(C)(C)C)nc2n1 + NC(=O)Nc1cc(-c2cccc(F)c2)sc1C(=O)N[C@H]1CCCNC1 [AZD7762] (partner 0.2 µM)"
  relative viability: 0.497
- compound: "CCN(CC)CCCCNc1ncc2cc(-c3cc(OC)cc(OC)c3)c(NC(=O)NC(C)(C)C)nc2n1 + O=C(CCCCCCC(=O)Nc1ccccc1)NO [Vorinostat] (partner 1 µM)"
  relative viability: 0.881
- compound: "CCN(CC)CCCCNc1ncc2cc(-c3cc(OC)cc(OC)c3)c(NC(=O)NC(C)(C)C)nc2n1 + Cc1cc(Nc2cc(N3CCN(C)CC3)nc(Sc3ccc(NC(=O)C4CC4)cc3)n2)n[nH]1 [Tozasertib] (partner 0.1 µM)"
  relative viability: 0.685
- compound: "O=c1cc(N2CCOCC2)oc2c(-c3cccc4c3sc3ccccc34)cccc12 + COc1cccc2cc(-c3nc([C@H]4CC[C@H](C(=O)O)CC4)n4ncnc(N)c34)[nH]c12 [OSI-027] (partner 0.5 µM)"
  relative viability: 1.04
- compound: "O=c1cc(N2CCOCC2)oc2c(-c3cccc4c3sc3ccccc34)cccc12 + CS(=O)(=O)N1CCN(Cc2cc3nc(-c4cccc5[nH]ncc45)nc(N4CCOCC4)c3s2)CC1 [Pictilisib] (partner 1 µM)"
  relative viability: 0.638
- compound: "O=c1cc(N2CCOCC2)oc2c(-c3cccc4c3sc3ccccc34)cccc12 + Cc1nc(Nc2ncc(C(=O)Nc3c(C)cccc3Cl)s2)cc(N2CCN(CCO)CC2)n1 [Dasatinib] (partner 0.075 µM)"
  relative viability: 0.257
- compound: "CCN(CC)CCCCNc1ncc2cc(-c3cc(OC)cc(OC)c3)c(NC(=O)NC(C)(C)C)nc2n1 + Nc1ncn([C@H]2C[C@H](O)[C@@H](CO)O2)c(=O)n1 [Decitabine] (partner 2 µM)"
  relative viability: 0.249
- compound: "CCN(CC)CCCCNc1ncc2cc(-c3cc(OC)cc(OC)c3)c(NC(=O)NC(C)(C)C)nc2n1 + N=C(N)NC(=N)NCCc1ccccc1 [Phenformin] (partner 250 µM)"
  relative viability: 0.87

* * *

tested on: NCI-H596; test: relative viability (nuclei count vs DMSO), 5 days (fraction); higher = more cells survive; details: first compound 20 µM
// reported relative viability for each item listed
recorded endpoint: relative viability

- molecule: "COCC1(CO)C(=O)C2CCN1CC2 (configuration not stated) [PRIMA-1MET] + NC(=O)Nc1cc(-c2cccc(F)c2)sc1C(=O)N[C@H]1CCCNC1 [AZD7762] (partner 0.2 µM)"
  recorded endpoint: "relative viability"
  result: 0.232
- molecule: "COCC1(CO)C(=O)C2CCN1CC2 (configuration not stated) [PRIMA-1MET] + CC(=O)Nc1cccc(-n2c(=O)n(C3CC3)c(=O)c3c(Nc4ccc(I)cc4F)n(C)c(=O)c(C)c32)c1 [Trametinib] (partner 0.02 µM)"
  recorded endpoint: "relative viability"
  result: 0.119
- molecule: "COCC1(CO)C(=O)C2CCN1CC2 (configuration not stated) [PRIMA-1MET] + Cc1nc(NC(=O)N2CCC[C@H]2C(N)=O)sc1-c1ccnc(C(C)(C)C(F)(F)F)c1 [Alpelisib] (partner 2 µM)"
  recorded endpoint: "relative viability"
  result: 0.469
- molecule: "COCC1(CO)C(=O)C2CCN1CC2 (configuration not stated) [PRIMA-1MET] + Cc1nc(Nc2ncc(C(=O)Nc3c(C)cccc3Cl)s2)cc(N2CCN(CCO)CC2)n1 [Dasatinib] (partner 0.075 µM)"
  recorded endpoint: "relative viability"
  result: 0.147
- molecule: "COCC1(CO)C(=O)C2CCN1CC2 (configuration not stated) [PRIMA-1MET] + N=C(N)NC(=N)NCCc1ccccc1 [Phenformin] (partner 250 µM)"
  recorded endpoint: "relative viability"
  result: 0.693
- molecule: "COCC1(CO)C(=O)C2CCN1CC2 (configuration not stated) [PRIMA-1MET] + Nc1nc2[nH]cc(CCc3ccc(C(=O)N[C@@H](CCC(=O)O)C(=O)O)cc3)c2c(=O)[nH]1 [Pemetrexed] (partner 0.2 µM)"
  recorded endpoint: "relative viability"
  result: 0.176
- molecule: "COCC1(CO)C(=O)C2CCN1CC2 (configuration not stated) [PRIMA-1MET] + CC(C)C[C@H](NC(=O)[C@H](Cc1ccccc1)NC(=O)c1cnccn1)B(O)O [Bortezomib] (partner 0.002 µM)"
  recorded endpoint: "relative viability"
  result: 0.195

* * *

// reported relative viability for each item listed
tested on: LOU-NH91; test: relative viability (nuclei count vs DMSO), 5 days (fraction); higher = more cells survive; conditions: first compound 2 µM

- compound: "COCC1(CO)C(=O)C2CCN1CC2 (stereo not drawn) [PRIMA-1MET] + C[C@]1(O)C[C@@H](c2nc(-c3ccc4ccc(-c5ccccc5)nc4c3)c3c(N)nccn32)C1 [Linsitinib] (partner 1 µM)"
  relative viability: 0.773
- compound: "COCC1(CO)C(=O)C2CCN1CC2 (stereo not drawn) [PRIMA-1MET] + Cc1nc(Nc2ncc(C(=O)Nc3c(C)cccc3Cl)s2)cc(N2CCN(CCO)CC2)n1 [Dasatinib] (partner 0.075 µM)"
  relative viability: 0.569
- compound: "COCC1(CO)C(=O)C2CCN1CC2 (stereo not drawn) [PRIMA-1MET] + CC(=O)Nc1cccc(-n2c(=O)n(C3CC3)c(=O)c3c(Nc4ccc(I)cc4F)n(C)c(=O)c(C)c32)c1 [Trametinib] (partner 0.02 µM)"
  relative viability: 0.793
- compound: "COCC1(CO)C(=O)C2CCN1CC2 (stereo not drawn) [PRIMA-1MET] + C[C@@H](Oc1cc(-c2cnn(C3CCNCC3)c2)cnc1N)c1c(Cl)ccc(F)c1Cl [Crizotinib] (partner 1 µM)"
  relative viability: 0.743
- compound: "COCC1(CO)C(=O)C2CCN1CC2 (stereo not drawn) [PRIMA-1MET] + Nc1ncn([C@H]2C[C@H](O)[C@@H](CO)O2)c(=O)n1 [Decitabine] (partner 2 µM)"
  relative viability: 0.806
- compound: "COCC1(CO)C(=O)C2CCN1CC2 (stereo not drawn) [PRIMA-1MET] + COc1cc2c(Oc3ccc(NC(=O)C4(C(=O)Nc5ccc(F)cc5)CC4)cc3F)ccnc2cc1OCCCN1CCOCC1 [Foretinib] (partner 0.25 µM)"
  relative viability: 0.861
- compound: "COCC1(CO)C(=O)C2CCN1CC2 (stereo not drawn) [PRIMA-1MET] + Cc1cc(Nc2cc(N3CCN(C)CC3)nc(Sc3ccc(NC(=O)C4CC4)cc3)n2)n[nH]1 [Tozasertib] (partner 0.1 µM)"
  relative viability: 0.625
- compound: "COCC1(CO)C(=O)C2CCN1CC2 (stereo not drawn) [PRIMA-1MET] + O=C(c1cc(Cc2n[nH]c(=O)c3ccccc23)ccc1F)N1CCN(C(=O)C2CC2)CC1 [Olaparib] (partner 8 µM)"
  relative viability: 0.866
